# System: P388 leukemia ip, CD2F1 mice, survival T/C
# protocolDetails: NCI In Vivo Anticancer Drug Screen. Data for tumor model P388 Leukemia (intraperitoneal) in CD2F1 (CDF1) mice
# testConditions: endpoint: median survival time; dose: 50.0 mg/kg/injection; schedule: Q01DX009 (ip); vehicle: saline with Tween-80; higher = longer survival
Toxic doses and inconclusive results are not listed.
The following compounds are shown together with reported T/C values.
valueKind: T/C

compound	observed
CCOC(=O)/C(C#N)=C/Nc1ccncc1	95 % of control
Clc1ccc(C(CCc2ccc(Br)cc2)Cn2ccnc2)c(Cl)c1 (stereo not drawn)	87 % of control
COc1cccc(CN2CC(C)N(N=Cc3c4c(O)c5c(O)c(C)c6c(c5c3O)C(=O)C(C)(O/C=C/C(OC)C(C)C(OC(C)=O)C(C)C(O)C(C)C(O)C(C)/C=C/C=C(\C)C(=O)N4)O6)C(C)C2)c1 (stereo not drawn)	96 % of control
COc1ccc(-c2cc[n+]([O-])c(C)c2C)c(OC)c1OC	94 % of control
CN(C)c1ccc(Sc2ccc3nc(N)nc(N)c3c2)cc1	95 % of control
O=C(Oc1ccccc1)C(Cc1ccccc1)NC(=O)C(F)(F)F (stereo not drawn)	108 % of control
COn1nnc2ccccc21	99 % of control
OC(COc1cccc(C(F)(F)F)c1)CN1CCN(c2ccc(F)cc2)CC1 (stereo not drawn)	124 % of control
CC(=O)OC1CCC2(C)C(C1)CC(OC(C)=O)C1C2CC(OC(C)=O)C2(C)C(C(C)CC=C(c3ccccc3)c3ccccc3)CCC12 (stereo not drawn)	100 % of control
NC(=S)c1cccc(C2Nc3ccccc3O2)c1 (stereo not drawn)	94 % of control
COC(=S)c1ccc(C(=S)OC)cc1	99 % of control
Nc1nc(N)c2nc3c(nc2n1)C(=O)N(c1ccc(C(=O)O)cc1)C3	108 % of control
O=c1cccccc1Cl	104 % of control
CCOC(=O)c1cc([N+](=O)[O-])c[nH]1	97 % of control
CCOC(=O)/C(=N/NS(=O)(=O)c1c(C)cc(C)cc1C)c1ccco1	113 % of control
CC1SC(c2ccc(Cl)cc2)N2C(=O)C(C)SC(c3ccc(Cl)cc3)N2C1=O (stereo not drawn)	87 % of control
Cc1c(CCNC=O)cc(C)c2c3c(oc12)CCCC3	91 % of control
N#Cc1ccc([N+](=O)[O-])o1	95 % of control
CCCCCCC(=O)/C=C/c1ccc(OC)c(OC)c1OC	96 % of control
Cc1ccc2nc(CC(O)(c3ccccc3)c3ccccc3)ccc2c1	110 % of control
CCOC(=O)c1ccc(NC(CCC(C#N)(CCC(=NC(C)(C)C)Nc2ccc(C(=O)OCC)cc2)C(=O)OCC)=NC(C)(C)C)cc1 (stereo not drawn)	95 % of control
Nc1ccc2ccc(O)cc2c1	100 % of control
O=C1c2ccccc2CN1Cc1ccc(Cl)c(Cl)c1	96 % of control

====

# Test system: P388 leukemia ip, CD2F1 mice, survival T/C
# protocolDetails: NCI In Vivo Anticancer Drug Screen. Data for tumor model P388 Leukemia (intraperitoneal) in CD2F1 (CDF1) mice
# testConditions: endpoint: median survival time; dose: 50.0 mg/kg/injection; schedule: Q01DX009 (ip); vehicle: Klucel (hydroxypropylcellulose) (HPC); higher = longer survival
# Procedure: The antitumor activity of compounds was measured in mice bearing transplantable tumors. Survival or tumor size were measured and the results are expressed as the measurement made in the treated group (T) divided by the measurement made in the vehicle treated control group (C). The tumor model used in this assay is P388 Leukemia (intraperitoneal) in CD2F1 (CDF1) mice
Toxic doses and inconclusive results are not listed.
Each item that follows carries a reported T/C.
valueKind: T/C

                                   compound          observed
0                  Cc1nonc1-c1ccc2c(c1)OCO2  105 % of control
1             O=c1[nH]c2ccc(Cl)cc2c2ccccc12  101 % of control
2       C=CCn1c(Br)nc2c1c(=O)n(CC)c(=O)n2CC   89 % of control
3         CN(C)c1ccc(/C=C/c2nc3ccccc3s2)cc1   99 % of control
4       CCOC(=O)c1c[nH]c2c(Cl)c(Cl)ccc2c1=O  102 % of control
5                        CNNCCCCC(=O)NC(C)C   98 % of control
6               O=c1[nH]c2cc(Cl)ccc2c(=O)o1  112 % of control
7      Cc1ccc(S(=O)(=O)SSC(=S)Sc2ccccc2)cc1  116 % of control
8                  CCCN(C)N=Nc1ccccc1C(=O)O  105 % of control
9  CC1(C)CCCC(C)(C2CCC3(C)C2C(O)CC2C4(C)CCC(O)C(C)(C)C4C(O)CC23C)O1 (stereo not given)   92 % of control

====

# Tested on: P388 leukemia ip, CD2F1 mice, survival T/C
# protocolDetails: NCI In Vivo Anticancer Drug Screen. Data for tumor model P388 Leukemia (intraperitoneal) in CD2F1 (CDF1) mice
# testConditions: endpoint: median survival time; dose: 200.0 mg/kg/injection; schedule: Q04DX003 (ip); vehicle: Klucel (hydroxypropylcellulose) (HPC); higher = longer survival
Toxic doses and inconclusive results are not listed.
As shown below, each of these molecules has a reported T/C value.
valueKind: T/C

In [3]: df
Out[3]:
                                 smilesrepr  valuekind          observed
0             O=C(S)CC(O)(c1ccccc1)c1ccccc1        T/C  105 % of control
1                      CCCCCCCCCCCCCCCCCCON        T/C   92 % of control
2  Cc1ccc(N2C(=O)CC3(CCCCC3)C2=O)cc1[N+](=O)[O-]        T/C   97 % of control
3                 NC(=S)c1ccccc1N=Cc1ccccn1        T/C  107 % of control
4                     O=S1(=O)CCOc2ccccc2N1        T/C   96 % of control
5  FC(F)(F)C1(C(F)(F)F)OS2(OC(C(F)(F)F)(C(F)(F)F)c3ccccc32)c2ccccc21        T/C   91 % of control
6        NC1=CC(=O)c2nc(-c3ccccc3N)ccc2C1=O        T/C  105 % of control

====

# Test system: P388 leukemia ip, CD2F1 mice, survival T/C
# protocolDetails: NCI In Vivo Anticancer Drug Screen. Data for tumor model P388 Leukemia (intraperitoneal) in CD2F1 (CDF1) mice
# testConditions: endpoint: median survival time; dose: 400.0 mg/kg/injection; schedule: Q01DX001 (ip); vehicle: Klucel (hydroxypropylcellulose) (HPC); higher = longer survival
# Procedure: The antitumor activity of compounds was measured in mice bearing transplantable tumors. Survival or tumor size were measured and the results are expressed as the measurement made in the treated group (T) divided by the measurement made in the vehicle treated control group (C). The tumor model used in this assay is P388 Leukemia (intraperitoneal) in CD2F1 (CDF1) mice
Inconclusive results and toxic doses are left out.
# T/C listing for each entry below
valueKind: T/C

In [3]: df
Out[3]:
                                   compound                             assayedtarget  valuekind          observed
0  C1=C(OC(=Nc2ccccc2)N2CCOCC2)N=C(OC(=Nc2ccccc2)N2CCOCC2)/C1=C1\C=C(OC(=Nc2ccccc2)N2CCOCC2)N=C1OC(=Nc1ccccc1)N1CCOCC1  P388 leukemia ip, CD2F1 mice, survival T/C        T/C  106 % of control
1                 CC(C)(C)c1nnc2cccc(Cl)n12  P388 leukemia ip, CD2F1 mice, survival T/C        T/C  103 % of control
2  O=C(CCCNC(=O)OCc1ccccc1)OCc1ccc2c(c1)C(=O)c1ccccc1C2=O  P388 leukemia ip, CD2F1 mice, survival T/C        T/C   86 % of control
3                     CCP(c1ccccc1)c1ccccc1  P388 leukemia ip, CD2F1 mice, survival T/C        T/C  103 % of control
4  Cc1ccc(/C2=C(\c3ccc(C)cc3)N(c3ccc(C)cc3)CCCCN2c2ccc(C)cc2)cc1  P388 leukemia ip, CD2F1 mice, survival T/C        T/C   92 % of control
5  CC(O)CC1(c2ccccc2)CNC(=O)NC1=O (centres undefined)  P388 leukemia ip, CD2F1 mice, survival T/C        T/C   92 % of control
6         CCCCNc1ccc(-c2c(N)nc(N)nc2CC)cc1N  P388 leukemia ip, CD2F1 mice, survival T/C        T/C   94 % of control
7                 Cc1c2c(nn1C)CC(C)(C)OC2=O  P388 leukemia ip, CD2F1 mice, survival T/C        T/C  101 % of control
8          Cn1c(Br)c(/C=N/NC(N)=S)c2ccccc21  P388 leukemia ip, CD2F1 mice, survival T/C        T/C  102 % of control
